Hi there, I'd appreciate the recorded AUC for every entry that follows.
- Experimental details: AUC in cynomolgus monkey at 2 mg/kg, po
- Type: ADME, organism-based, Macaca fascicularis
- Design: dose 2 mg/kg, route oral
- Condition: plasma
Just the number please, in ng·h/mL, no unit attached.

[Q] Which AUC value is on record for CCC(CC)[C@@H]1C(=O)N[C@H](C2Cc3ccccc3C2)C(=O)N1[C@@H](C(=O)N1CCOCC1)c1ccc(C)nc1C ?
[A] 11

[Q] Which AUC value is on record for CC[C@H](C)[C@@H]1C(=O)N[C@H](C2Cc3ccccc3C2)C(=O)N1[C@@H](C(=O)N1CCOCC1)c1ccc(C)nc1C ?
[A] 116

[Q] Which AUC value is on record for CC[C@H](C)[C@@H]1C(=O)N[C@H](C2Cc3ccccc3C2)C(=O)N1[C@@H](C(=O)N1CCOCC1)c1coc(C)n1 ?
[A] 45

[Q] Which AUC value is on record for CC(C)C[C@@H]1C(=O)N[C@H](C2Cc3ccccc3C2)C(=O)N1[C@@H](C(=O)N(C)C)c1ccc(F)cc1F ?
[A] 16

[Q] Which AUC value is on record for CCC(CC)[C@@H]1C(=O)N[C@H](C2Cc3ccccc3C2)C(=O)N1[C@@H](C(=O)NC)c1ccc(C)nc1 ?
[A] 29

[Q] Which AUC value is on record for CC[C@H](C)[C@@H]1C(=O)N[C@H](C2Cc3ccccc3C2)C(=O)N1[C@@H](C(=O)N(C)C)c1ccc(C)nc1C ?
[A] 17

----------
- Experimental details: Aqueous solubility of the compound by HPLC analysis
- Assay type: physicochemical
Hi there, I'd appreciate the recorded solubility for every entry that follows.

[Q] Which solubility value is on record for CC[C@@H](C)[C@@H]1C(=O)N[C@H](C2Cc3ccccc3C2)C(=O)N1[C@@H](C(=O)N(C)C)c1ccc(C)nc1 ?
[A] > 237 µg/mL

[Q] Which solubility value is on record for Cc1ccc([C@H](C(=O)N2CCOCC2)N2C(=O)[C@@H](C3Cc4ccccc4C3)NC(=O)[C@H]2CC2CC2)cn1 ?
[A] > 258 µg/mL

[Q] Which solubility value is on record for Cc1ccc([C@H](C(=O)N2CCOCC2)N2C(=O)[C@@H](C3Cc4ccccc4C3)NC(=O)[C@H]2CC(C)(C)C)cn1 ?
[A] 213 µg/mL

----------
Hi there, I'd appreciate the recorded log10 of CLH for every entry that follows.
- Experimental details: Intrinsic clearance in cynomolgus monkey liver microsomes
- Assay type: ADME, Macaca fascicularis, Microsome
Friendly reminder: values = log10 of CLH, unit mL/min/g.

[Q] Which log10 of CLH value is on record for CC[C@@H](C)[C@@H]1C(=O)N[C@H](C2Cc3ccccc3C2)C(=O)N1[C@@H](C(=O)N(C)C)c1ccc(C)nc1 ?
[A] 1.04

[Q] Which log10 of CLH value is on record for CC[C@H](C)[C@@H]1C(=O)N[C@H](C2Cc3ccccc3C2)C(=O)N1[C@@H](C(=O)NC)c1ccc(C)nc1C ?
[A] 0.78

[Q] Which log10 of CLH value is on record for CC[C@H](C)[C@@H]1C(=O)N[C@H](C2Cc3ccccc3C2)C(=O)N1[C@@H](C(=O)N1CCOCC1)c1cnc(C)cc1C ?
[A] 1.20

[Q] Which log10 of CLH value is on record for CC(C)C[C@@H]1C(=O)N[C@H](C2Cc3ccccc3C2)C(=O)N1[C@@H](C(=O)N(C)C)c1ccc(F)cc1F ?
[A] 1.34

[Q] Which log10 of CLH value is on record for CCC(CC)[C@@H]1C(=O)N[C@H](C2Cc3ccccc3C2)C(=O)N1[C@@H](C(=O)N1CCOCC1)c1ccc(C)nc1C ?
[A] 1.15

[Q] Which log10 of CLH value is on record for CC[C@H](C)[C@@H]1C(=O)N[C@H](C2Cc3ccccc3C2)C(=O)N1[C@@H](C(=O)N(C)C)c1ccc(C)[n+]([O-])c1 ?
[A] 0.00

[Q] Which log10 of CLH value is on record for CC[C@H](C)[C@@H]1C(=O)N[C@H](C2Cc3ccccc3C2)C(=O)N1[C@@H](C(=O)N(C)C)c1ccc(C)nc1 ?
[A] 0.95

[Q] Which log10 of CLH value is on record for Cc1ccc([C@H](C(=O)N(C)C)N2C(=O)[C@@H](C3Cc4ccccc4C3)NC(=O)[C@H]2CC(C)C)cn1 ?
[A] 1.32

[Q] Which log10 of CLH value is on record for CC[C@H](C)[C@@H]1C(=O)N[C@H](C2Cc3ccccc3C2)C(=O)N1[C@@H](C(=O)NC)c1cnc(C)cc1C ?
[A] 1.30

[Q] Which log10 of CLH value is on record for CC[C@H](C)[C@@H]1C(=O)N[C@H](C2Cc3ccccc3C2)C(=O)N1[C@@H](C(=O)NC)c1cc(C)cnc1C ?
[A] 0.70

[Q] Which log10 of CLH value is on record for CCC(CC)[C@@H]1C(=O)N[C@H](C2Cc3ccccc3C2)C(=O)N1[C@@H](C(=O)NC)c1ccc(C)nc1C ?
[A] 1.49

[Q] Which log10 of CLH value is on record for CCC(CC)[C@@H]1C(=O)N[C@H](C2Cc3ccccc3C2)C(=O)N1[C@@H](C(=O)N1CCOCC1)c1ccc(C)nc1 ?
[A] 1.26

[Q] Which log10 of CLH value is on record for CCC(CC)[C@@H]1C(=O)N[C@H](C2Cc3ccccc3C2)C(=O)N1[C@@H](C(=O)NC)c1ccc(C)nc1 ?
[A] 0.90

[Q] Which log10 of CLH value is on record for CC[C@H](C)[C@@H]1C(=O)N[C@H](C2Cc3ccccc3C2)C(=O)N1[C@@H](C(=O)N1CCOCC1)c1coc(C)n1 [RETOSIBAN] ?
[A] 0.78

[Q] Which log10 of CLH value is on record for CC[C@H](C)[C@@H]1C(=O)N[C@H](C2Cc3ccccc3C2)C(=O)N1[C@@H](C(=O)N(C)C)c1ccc(C)nc1C ?
[A] 1.15

[Q] Which log10 of CLH value is on record for CCC(CC)[C@@H]1C(=O)N[C@H](C2Cc3ccccc3C2)C(=O)N1[C@@H](C(=O)N(C)C)c1ccc(C)nc1 ?
[A] 1.08

[Q] Which log10 of CLH value is on record for CC[C@H](C)[C@@H]1C(=O)N[C@H](C2Cc3ccccc3C2)C(=O)N1[C@@H](C(=O)N(C)C)c1cc(C)cnc1C ?
[A] 1.11

[Q] Which log10 of CLH value is on record for CC[C@H](C)[C@@H]1C(=O)N[C@H](C2Cc3ccccc3C2)C(=O)N1[C@@H](C(=O)N1CCOCC1)c1ccc(C)nc1C [EPELSIBAN] ?
[A] 0.60

[Q] Which log10 of CLH value is on record for CC[C@H](C)[C@@H]1C(=O)N[C@H](C2Cc3ccccc3C2)C(=O)N1[C@@H](C(=O)N1CCOCC1)c1ccc(C)nc1 ?
[A] 0.78

[Q] Which log10 of CLH value is on record for Cc1ccc([C@H](C(=O)N(C)C)N2C(=O)[C@@H](C3Cc4ccccc4C3)NC(=O)[C@H]2CC(C)(C)C)cn1 ?
[A] 0.90

[Q] Which log10 of CLH value is on record for Cc1ccc([C@H](C(=O)N2CCOCC2)N2C(=O)[C@@H](C3Cc4ccccc4C3)NC(=O)[C@H]2CC(C)(C)C)cn1 ?
[A] 1.32

[Q] Which log10 of CLH value is on record for CC[C@H](C)[C@@H]1C(=O)N[C@H](C2Cc3ccccc3C2)C(=O)N1[C@@H](C(=O)N(C)C)c1cnc(C)cc1C ?
[A] 1.51

[Q] Which log10 of CLH value is on record for CC[C@@H](C)[C@@H]1C(=O)N[C@H](C2Cc3ccccc3C2)C(=O)N1[C@@H](C(=O)N1CCOCC1)c1ccc(C)nc1 ?
[A] 0.90

[Q] Which log10 of CLH value is on record for CCC(CC)[C@@H]1C(=O)N[C@H](C2Cc3ccccc3C2)C(=O)N1[C@@H](C(=O)N(C)C)c1ccc(C)nc1C ?
[A] 1.46
